Provenance of the data: ChEMBL document CHEMBL6096687

- Measurement Notes: In vivo stability in male ddY mouse stomach assessed as decrease in radioactivity at 37 kBq, iv measured after 10 to 240 mins by autowell-gamma counter analysis
- Format: ADME, organism-based
- Condition Description: time 10-240 min
Measurement Label: Stability

Worked examples follow.
- Structure Smiles String: "COCOCc1cc(C(=O)NCC(=O)O)cc(COCOC)c1[125I]"
  Result: "Stable"
- Structure Smiles String: "O=C(O)CNC(=O)c1cc(CO)c([211At])c(CO)c1"
  Result: "Unstable"
- Structure Smiles String: "COCOCc1cc(C(=O)NCC(=O)O)cc(COCOC)c1[211At]"
  Result: "Unstable"
- Structure Smiles String: "CN(C)C(=O)c1cc(C(=O)NCC(=O)O)cc(C(=O)N(C)C)c1[211At]"
  Result: "Stable"

I have this compound here, O=C(O)CNC(=O)c1cc(CO)c([125I])c(CO)c1 , and I need its recorded Stability.
Stable

Consider the compound shown here: CN(C)C(=O)c1cc(C(=O)NCC(=O)O)ccc1[211At] What is its recorded Stability?
Unstable

Can you look up the measured Stability of O=C(O)CNC(=O)c1ccc([125I])cc1 for me?
Stable

Requested field: Stability. Item: CN(C)C(=O)c1cc(C(=O)NCC(=O)O)cc(C(=O)N(C)C)c1[125I]
Stable

Requested read-out: Stability. Entry: O=C(O)CNC(=O)c1ccc([211At])cc1
Unstable
